The measurements presented in this section are drawn from patent US20210127673A1.

Tested on: Setaria faberi (SETFA)
test name: Pre-emergence herbicidal activity, Setaria faberi
Format: in vivo
measurement setup: 1000 g/ha, evaluated after 13 days, Test 1b
Method: Seeds of a variety of test species were sown in standard soil in pots: Triticum aestivium (TRZAW), Avena fatua (AVEFA), Alopecurus myosuroides (ALOMY), Echinochloa crus-galli (ECHCG), Lolium perenne (LOLPE), Zea Mays (ZEAMX), Abutilon theophrasti (ABUTH), Amaranthus retroflexus (AMARE) and Setaria faberi (SETFA). […] After 13 days, the test was evaluated (5=total damage to plant; 0=no damage to plant).
Entry flag: yes (1) if SETFA damage score (0-5) reaches 3; no (0) if it does not.

Say whether CN(C(=O)OC(C)(C)C)c1ccc(-c2cncc(F)c2)nc1C(F)(F)F shows SETFA damage score (0-5) of 3 or more.
yes (1)

Say whether Cc1nc(-c2cncnc2)ccc1NC(=O)OC(C)(C)C shows SETFA damage score (0-5) of 3 or more.
no (0)

Say whether Cc1nc(-c2cncc(F)c2)ccc1NC(=O)OC(C)(C)C shows SETFA damage score (0-5) of 3 or more.
yes (1)

Say whether CN(C(=O)OC(C)(C)C)c1ccc(-c2cncc(C(F)(F)F)c2)nc1C(F)(F)F shows SETFA damage score (0-5) of 3 or more.
no (0)

Say whether CN(C(=O)OC(C)(C)C)c1ccc(-c2cccnc2)nc1C(F)(F)F shows SETFA damage score (0-5) of 3 or more.
yes (1)

Say whether CC(C)(C)OC(=O)Nc1ccc(-c2cncnc2)nc1C(F)(F)F shows SETFA damage score (0-5) of 3 or more.
yes (1)

Say whether CN(C(=O)OC(C)(C)C)c1ccc(-c2cncnc2)nc1C(F)(F)F shows SETFA damage score (0-5) of 3 or more.
yes (1)

Say whether Cc1nc(-c2cncc(C#N)c2)ccc1NC(=O)OC(C)(C)C shows SETFA damage score (0-5) of 3 or more.
yes (1)

###

Recorded measurements of LOLPE damage score (0-5), one per entry
Tested on: Lolium perenne (LOLPE)
test name: Post-emergence herbicidal activity, Lolium perenne
Type: in vivo
measurement setup: 1000 g/ha, evaluated after 13 days, Test 2b

As a guide, the following entries are already answered.
molecule_smiles=CC(C)(C)OC(=O)Nc1ccc(-c2cncnc2)nc1C(F)(F)F measurement=2
molecule_smiles=CN(C(=O)OC(C)(C)C)c1ccc(-c2cncc(F)c2)nc1C(F)(F)F measurement=3
molecule_smiles=Cc1nc(-c2cncnc2)ccc1NC(=O)OC(C)(C)C measurement=4
molecule_smiles=Cc1nc(-c2cccnc2)ccc1NC(=O)OC(C)(C)C measurement=4
molecule_smiles=CC(C)OC(=O)Nc1ccc(-c2cncc(F)c2)nc1C(F)(F)F measurement=3

The compound listed as Cc1nc(-c2cncc(C#N)c2)ccc1NC(=O)OC(C)(C)C has a reported LOLPE damage score (0-5) of 3

The compound listed as COc1cncc(-c2ccc(N(C)C(=O)OC(C)(C)C)c(C(F)(F)F)n2)c1 has a reported LOLPE damage score (0-5) of 1

The compound listed as CCOC(=O)Nc1ccc(-c2cncc(F)c2)nc1C(F)(F)F has a reported LOLPE damage score (0-5) of 2

The compound listed as Cc1nc(-c2cncc(F)c2)ccc1NC(=O)OC(C)(C)C has a reported LOLPE damage score (0-5) of 4

The compound listed as Cc1cncc(-c2ccc(N(C)C(=O)OC(C)(C)C)c(C(F)(F)F)n2)c1 has a reported LOLPE damage score (0-5) of 1

The compound listed as CC(C)(C)OC(=O)Nc1ccc(-c2cncnc2)nc1Cl has a reported LOLPE damage score (0-5) of 2

The compound listed as CCN(C(=O)OC(C)(C)C)c1ccc(-c2cncc(F)c2)nc1C(F)(F)F has a reported LOLPE damage score (0-5) of 1

The compound listed as CN(C(=O)OC(C)(C)C)c1ccc(-c2cncnc2)nc1C(F)(F)F has a reported LOLPE damage score (0-5) of 2

The compound listed as Cc1nc(-c2cncc(C(F)(F)F)c2)ccc1NC(=O)OC(C)(C)C has a reported LOLPE damage score (0-5) of 1

The compound listed as COc1cncc(-c2ccc(NC(=O)OC(C)(C)C)c(C)n2)c1 has a reported LOLPE damage score (0-5) of 2

The compound listed as CN(C(=O)OC(C)(C)C)c1ccc(-c2cccnc2)nc1C(F)(F)F has a reported LOLPE damage score (0-5) of 3

The compound listed as CC(C)(C)OC(=O)Nc1ccc(-c2cncc(F)c2)nc1C(F)(F)F has a reported LOLPE damage score (0-5) of 4

The compound listed as CN(C(=O)OC(C)(C)C)c1ccc(-c2cncc(C(F)(F)F)c2)nc1C(F)(F)F has a reported LOLPE damage score (0-5) of 0

The compound listed as Cc1nc(-c2cncc(OC(F)F)c2)ccc1NC(=O)OC(C)(C)C has a reported LOLPE damage score (0-5) of 2

###

Test system: Lolium perenne (LOLPE)
test name: Pre-emergence herbicidal activity, Lolium perenne
Assay type: in vivo
measurement setup: 1000 g/ha, evaluated after 13 days
Protocol: Seeds of a variety of test species were sown in standard soil in pots: Triticum aestivium (TRZAW), Avena fatua (AVEFA), Alopecurus myosuroides (ALOMY), Echinochloa crus-galli (ECHCG), Lolium perenne (LOLPE), Zea Mays (ZEAMX), Abutilon theophrasti (ABUTH), Amaranthus retroflexus (AMARE) and Setaria faberi (SETFA). […] After 13 days, the test was evaluated (5=total damage to plant; 0=no damage to plant).
recorded metric: Control of LOLPE after pre-emergence application (score 0-5)
When you answer, write just the number.

compound=COc1nc(-c2cncc(F)c2)ccc1NC(=O)OC(C)(C)C measurement=1

Pending compound:
The compound listed as CN(C)C(=O)N(C)c1ccc(-c2cncc(F)c2)nc1C(F)(F)F has a reported Control of LOLPE after pre-emergence application (score 0-5) of 1

###

System: Avena fatua (AVEFA)
test name: Pre-emergence herbicidal activity, Avena fatua
Format: in vivo
Design: key: 5=total damage to plant; 0=no damage to plant
measurement setup: 250 g/ha, evaluated after 13 days
recorded metric: Control of AVEFA after pre-emergence application (score 0-5)
When you answer, write just the number.

The molecule listed as CCCCN(C)C(=O)Nc1ccc(-c2cncc(F)c2)nc1C(F)(F)F [Compound B95] has a reported Control of AVEFA after pre-emergence application (score 0-5) of 0

###

Test system: Echinochloa crus-galli (ECHCG)
test name: Post-emergence herbicidal activity, Echinochloa crus-galli
Assay type: in vivo
measurement setup: 1000 g/ha, evaluated after 13 days
Recorded measurements of Control of ECHCG after post-emergence application (score 0-5), one per entry
When you answer, write just the number.

molecule_smiles=CSc1cncc(-c2ccc(NC(=O)OC(C)(C)C)c(C)n2)c1 tgt="Echinochloa crus-galli (ECHCG)" measurement=2

The compound listed as O=C(Nc1ccc(-c2cncc(F)c2)nc1C(F)(F)F)NC1CCCC1 has a reported Control of ECHCG after post-emergence application (score 0-5) of 4

The compound listed as O=C(Nc1ccc(-c2cncc(F)c2)nc1C(F)(F)F)OCC1CC1 has a reported Control of ECHCG after post-emergence application (score 0-5) of 5

The compound listed as CC(C)(C)OC(=O)N(C(=O)OC(C)(C)C)c1ccc(-c2cncc(F)c2)nc1C(F)(F)F has a reported Control of ECHCG after post-emergence application (score 0-5) of 5

###

Test system: Avena fatua (AVEFA)
test name: Post-emergence herbicidal activity, Avena fatua
Type: in vivo
measurement setup: 1000 g/ha, evaluated after 13 days
Recorded measurements of Control of AVEFA after post-emergence application (score 0-5), one per entry
When you answer, write just the number.

As a guide, the following entries are already answered.
molecule_smiles=CN(C(N)=O)c1ccc(-c2cncc(F)c2)nc1C(F)(F)F measurement=1
molecule_smiles=CN1CCN(c2ccc(-c3cncc(F)c3)nc2C(F)(F)F)C1=O measurement=3
molecule_smiles=CN1COCN(c2ccc(-c3cncc(F)c3)nc2C(F)(F)F)C1=O measurement=3

Summary: CC(C)NC(=O)Nc1ccc(-c2cncnc2)nc1C(F)(F)F , Avena fatua (AVEFA), Control of AVEFA after post-emergence application (score 0-5) = 3

###

System: Avena fatua (AVEFA)
test name: Post-emergence herbicidal activity, Avena fatua
Format: in vivo
measurement setup: 1000 g/ha, evaluated after 13 days
recorded metric: Control of AVEFA after post-emergence application (score 0-5)
When you answer, write just the number.

compound=CC(C)(C)OC(=O)N(C(=O)OC(C)(C)C)c1ccc(-c2cncc(F)c2)nc1C(F)(F)F measurement=4
compound=CC(C)c1cc(NC(=O)Nc2ccc(-c3cncc(F)c3)nc2C(F)(F)F)on1 measurement=2
compound="CCC(C)OC(=O)Nc1ccc(-c2cncc(F)c2)nc1C(F)(F)F (stereo not drawn)" measurement=3
compound=COC(=O)c1nc(-c2cncc(F)c2)ccc1N(C(=O)OC(C)(C)C)C(=O)OC(C)(C)C measurement=0
compound=CC(C)(C)OC(=O)Nc1ccc(-c2cncc(OC(F)(F)F)c2)nc1C(F)(F)F measurement=3

Pending compound:
The compound listed as CN1CCN(C(=O)Nc2ccc(-c3cncc(F)c3)nc2C(F)(F)F)CC1 has a reported Control of AVEFA after post-emergence application (score 0-5) of 2
